Listed here: items and their measured Maximal reduction in CD33 (% remaining).
- Study target: human CD33 on primary human dendritic cells (human, UniProt P20138 18-364)
- Sequence (P20138 18-364): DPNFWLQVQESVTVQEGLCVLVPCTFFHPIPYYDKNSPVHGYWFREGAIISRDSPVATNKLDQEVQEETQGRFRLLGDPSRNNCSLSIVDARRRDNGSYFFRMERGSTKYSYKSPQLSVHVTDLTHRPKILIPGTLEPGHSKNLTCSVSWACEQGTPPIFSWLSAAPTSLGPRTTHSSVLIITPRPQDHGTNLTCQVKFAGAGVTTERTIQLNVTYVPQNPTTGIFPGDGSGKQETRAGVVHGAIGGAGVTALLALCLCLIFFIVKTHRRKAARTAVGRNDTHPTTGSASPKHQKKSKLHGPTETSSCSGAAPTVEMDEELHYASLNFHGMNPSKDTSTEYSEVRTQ
- Test summary: cell-based or functional assay
Reply with just the number (in % remaining).

anti-CD33 antibody 6C7H16 (antibody, V domains shown, VH/VL only) VH: EVQLVESGGGLVQPGGSLRLSCAGSGFTFSNYLMNWVRQAPGKGLEWVAEIRLKSNNYVTNYAASVKGRFTISRDDSKNSVYLQMNSLKTEDTGVYYCTRAGYYVPFAYWGQGTLVTVSS VL: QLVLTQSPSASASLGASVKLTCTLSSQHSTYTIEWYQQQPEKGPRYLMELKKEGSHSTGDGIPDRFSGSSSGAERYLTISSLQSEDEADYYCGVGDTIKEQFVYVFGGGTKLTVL : 28
anti-CD33 antibody 6C7H23 (antibody, V domains shown, VH/VL only) VH: EVQLVESGGGLVQPGGSLRLSCAGSGFTFSNYVMNWVRQAPGKGLEWVAEIRLKSNNYVTNYAASVKGRFTISRDDSKNSVYLQMNSLKTEDTGVYYCTRAGYYVPFAYWGQGTLVTVSS VL: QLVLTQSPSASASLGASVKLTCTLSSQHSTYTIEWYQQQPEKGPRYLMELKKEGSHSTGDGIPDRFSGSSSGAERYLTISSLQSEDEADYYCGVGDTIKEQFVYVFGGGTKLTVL : 26.2

Now look at this one.
Q. Supply Maximal reduction in CD33 (% remaining) value. Item: anti-CD33 antibody 6C7H25 (antibody, V domains shown, VH/VL only) VH: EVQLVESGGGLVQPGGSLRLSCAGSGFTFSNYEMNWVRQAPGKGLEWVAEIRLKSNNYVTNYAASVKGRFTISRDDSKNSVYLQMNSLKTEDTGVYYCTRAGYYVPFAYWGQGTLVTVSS VL: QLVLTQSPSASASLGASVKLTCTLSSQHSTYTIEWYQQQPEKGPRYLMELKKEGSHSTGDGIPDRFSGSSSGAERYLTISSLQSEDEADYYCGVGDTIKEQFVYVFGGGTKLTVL
A. 30.3
